Test system: Staphylococcus aureus
test-settings: Concentration 32 ug.mL-1; ASSAY_TEST Inhibition of Bacterial Growth; detection method Absorption (OD600); MEDIA CAMHB; plate type 384well; NBS; CORNING #3640; time 18 hr
Description: Antibacterial activity against Staphylococcus aureus MRSA ATCC 43300 (CO-ADD:GP_020); MIC in CAMBH media, using NBS plates, by OD(600)
Potency and affinity values are given separately.
Label y when Inhibition < 10%; otherwise n.

Report whether reported Inhibition is lower than 10% (strictly) for CCCCCCCNC(=O)CCNC(=O)C(O)C(C)(C)C (stereo not given) n

Report whether reported Inhibition is lower than 10% (strictly) for CC(C)(CN)C(O)C(=O)NCCC(=O)NCCc1ccccc1 (stereo not given) n

Report whether reported Inhibition is lower than 10% (strictly) for CC(C)(CO)C(O)C(=O)NCCCOP(=O)(O)OCC1OC(n2ccc(N)nc2=O)C(O)C1O (stereo not given) y

Report whether reported Inhibition is lower than 10% (strictly) for "CC(C)(CO)[C@H](O)C(=O)NCc1cn(C[C@H]2O[C@@H](n3ccc(N)nc3=O)[C@H](O)[C@@H]2O)nn1" n

Report whether reported Inhibition is lower than 10% (strictly) for "CC(C)(COP(=O)(O)O)[C@@H](O)C(=O)NCCC(=O)NCCc1ccccc1" n

Report whether reported Inhibition is lower than 10% (strictly) for "CC(C)(CO)[C@@H](O)C(=O)N/C=C/C(=O)NCCc1ccccc1" n

Report whether reported Inhibition is lower than 10% (strictly) for "CC(C)(CO)[C@H](O)C(=O)NCCC(=O)NCc1cn(C[C@H]2O[C@@H](n3ccc(N)nc3=O)[C@H](O)[C@@H]2O)nn1" y

Report whether reported Inhibition is lower than 10% (strictly) for "CCCCCCNNC(=O)CCNC(=O)[C@H](O)C(C)(C)CO" n

Report whether reported Inhibition is lower than 10% (strictly) for CC(CC(=O)NCCc1ccccc1)NC(=O)[C@H](O)C(C)(C)CO (stereo not given in full) n

Report whether reported Inhibition is lower than 10% (strictly) for "CC(C)(CO)[C@H](O)C(=O)NCCCc1cn(C[C@H]2O[C@@H](n3ccc(N)nc3=O)[C@H](O)[C@@H]2O)nn1" n

====

Test system: Escherichia coli
test-settings: Concentration 32 ug.mL-1; ASSAY_TEST Inhibition of Bacterial Growth; detection method Absorption (OD600); MEDIA CAMHB; plate type 384well; NBS; CORNING #3640; time 18 hr
Description: Antibacterial activity against Escherichia coli ATCC 25922 (CO-ADD:GN_001); MIC in CAMBH media using NBS plates, by OD(600)
Potency and affinity values are given separately.
measurement-kind: Inhibition (%)
A number alone suffices; assume %.

Item CC(C)(CO)C(O)C(=O)NCCCOP(=O)(O)OCC1OC(n2ccc(N)nc2=O)C(O)C1O (configuration not stated) ; assay system Escherichia coli; Inhibition reported as -11.28

Item "CC(C)(CO)[C@H](O)C(=O)NCc1cn(C[C@H]2O[C@@H](n3ccc(N)nc3=O)[C@H](O)[C@@H]2O)nn1" ; assay system Escherichia coli; Inhibition reported as -11.94

Item "CCCCCCCNS(=O)(=O)CCNC(=O)[C@H](O)C(C)(C)CO" ; assay system Escherichia coli; Inhibition reported as -4.61

Item CC(CC(=O)NCCc1ccccc1)NC(=O)[C@H](O)C(C)(C)CO (some centres not stated) ; assay system Escherichia coli; Inhibition reported as -6.39

Item "CC(C)(CO)[C@H](O)C(=O)NCCc1cn(C[C@H]2O[C@@H](n3ccc(N)nc3=O)[C@H](O)[C@@H]2O)nn1" ; assay system Escherichia coli; Inhibition reported as -7.3

Item "CC(C)(COP(=O)(O)O)[C@@H](O)C(=O)NCCC(=O)NCCc1ccccc1" ; assay system Escherichia coli; Inhibition reported as -8.26

Item "CC(C)(CO)[C@H](O)C(=O)NCCC(=O)OCc1cn(C[C@H]2O[C@@H](n3ccc(N)nc3=O)[C@H](O)[C@@H]2O)nn1" ; assay system Escherichia coli; Inhibition reported as -9.8

Item "CC(C)(CO)[C@@H](O)C(=O)N/C=C/C(=O)NCCc1ccccc1" ; assay system Escherichia coli; Inhibition reported as -5.06

Item "CC(C)(CO)[C@H](O)C(=O)NCCC(=O)NCc1cn(C[C@H]2O[C@@H](n3ccc(N)nc3=O)[C@H](O)[C@@H]2O)nn1" ; assay system Escherichia coli; Inhibition reported as -13.27

Item CCCCCCCNC(=O)CCNC(=O)C(O)C(C)(C)C (configuration not stated) ; assay system Escherichia coli; Inhibition reported as -4.21

Item "CC(C)(CO)[C@@H](O)C(=O)NCCC(=O)NNCc1ccccc1" ; assay system Escherichia coli; Inhibition reported as -5.42

Item CC(C)(C)C(O)C(=O)NCCC(=O)NCCc1ccccc1 (configuration not stated) ; assay system Escherichia coli; Inhibition reported as -6.19
